System: OVCAR-4 ovarian
Assay: NCI-60 one-dose screen, 48 h (100 = growth as untreated, 0 = no growth, -100 = all killed)
Details: 10 µM unless noted
Experimental: Growth inhibition of the OVCAR-4 human tumor cell line is measured as a screen for anti-cancer activity. Cells are grown in 96 well plates and exposed to the test compound for 48 hours. Compounds are tested at a single concentration, which is 10^-5 M for most compounds. The reported endpoint is percent growth (GI% or GIPRCNT), where numbers from 0 - 100% represent growth inhibition, and numbers from -100% - 0 represent cell death. For example, a value of 40 represents 60% growth inhibition. […]
This is part of a sample that, as a whole, favours compounds with a hit. Of some 83,000 tested, about 20% had one in any assay.
Kindly supply the reported growth values for the records listed here.
Answers are plain numbers, in %.

Worked examples, 3 compounds total:
Lab request: please report growth under test system OVCAR-4 ovarian for COc1cc2c3c(n(CCCN4CCC[C@H]4C(N)=O)c(=O)c2cc1OC)-c1cc2c(cc1C3=O)OCO2
21.7

Lab request: please report growth under test system OVCAR-4 ovarian for COc1ccc2c(c1)oc1c3[nH]c4ccccc4c3c3c(c21)C(=O)N(O)C3=O
77.9

Lab request: please report growth under test system OVCAR-4 ovarian for C#C[C@]1(O)CC[C@H]2[C@@H]3CC=C4c5sc(-c6ccc(OC)cc6)nc5CC[C@]4(C)[C@H]3CC[C@@]21C
97.9

Provide growth for all items below, preserving their order.
1. O=C(CCCCCCN1CC(=O)N2[C@@H](c3cc(F)cc(F)c3)c3[nH]c4ccccc4c3C[C@H]2C1=O)NO
2. C=CCn1c(SCC(=O)Nc2cccc(C(=O)/C=C/c3ccc(OC)c(OC)c3)c2)nc2ccccc2c1=O
3. O=C(CCCCCCN1CC(=O)N2[C@@H](c3cccc(Br)c3)c3[nH]c4ccccc4c3C[C@H]2C1=O)NO
4. Cc1cccc(NC(c2cc3cccc4ccc5cccc2c5c43)c2nnnn2C(C)(C)C)c1C (stereo not drawn)
5. Cn1nc(Nc2ccccc2)c(C(=O)NN)c1N

[69.4, 87.6, 48.9, 85.2, 99.9]

Provide growth for all items below, preserving their order.
1. O=C1c2c(c3c4cc(Br)ccc4[nH]c3c3ccc4ccccc4c23)C(=O)N1CCN1CCNCC1
2. Cn1cc(-c2nnc(N)nc2-c2cn(C)c3ccc(F)cc23)c2cc(F)ccc21
3. COc1ccccc1/C=C/C=N/NC1=NC2C(S1)N(C)C(=O)N2c1ccccc1 (stereo not drawn)
4. Clc1ccc(-c2csc(Nc3cccc(Nc4csc(-c5ccc(Cl)cc5)n4)c3)n2)cc1
5. CS(=O)(=O)c1nccc(-c2c(-c3ccc(F)c(OCc4ccccc4)c3)nc3sccn23)n1
6. CCOP(=O)(OCC)OC[C@]12CCC(C)(C)C[C@H]1C1=CC[C@@H]3[C@@]4(C)C/C(=C\c5cccnc5)[C@H](OP(=O)(OCC)OCC)C(C)(C)[C@@H]4CC[C@@]3(C)[C@]1(C)CC2
7. Cc1ccc(-c2cc3nc(C(Cl)Cl)nc(-c4ccccc4)n3n2)cc1

1: 103; 2: 97.4; 3: 56.8; 4: 76.5; 5: 104; 6: 27.6; 7: 103

Provide growth for all items below, preserving their order.
1. C=CCn1c(SCC(=O)Nc2cccc(C(=O)/C=C/c3cccc([N+](=O)[O-])c3)c2)nc2ccccc2c1=O
2. COc1ccc2c(c1)c(-c1nn3c(=O)cc(-c4ccccc4)nc3s1)cn2C
3. Cc1ccc(/C=C/CC(=O)Nc2ccc(C(=O)Nc3ccc(F)cc3N)nc2)cn1
4. O=C(NCCCNc1cc(-c2cn(-c3ccccc3)nc2-c2cccc(O)c2)ccn1)Nc1cc(C(F)(F)F)cc(C(F)(F)F)c1

[92, 67.4, 43.9, 66.9]
